Assay: Pharmacokinetics in rats, i.v.
Type: in vivo
Conditions: SD, plasma, iv, 1 umol/kg; rat, 1 μmol/kg i.v., n = 5; read-out: AUC(0-t) (converted)

# compound, AUC(0-t)
records = [
    ("CC[C@H](C)[C@H](NC(=O)[C@H](CCC(=O)O)NC(=O)[C@H](CCC(=O)O)NC(=O)[C@H](Cc1ccccc1)NC(=O)[C@H](CC(=O)O)NC(=O)CNC(=O)[C@H](CC(N)=O)NC(=O)CNC(=O)CNC(=O)CNC(=O)CNC(=O)[C@@H]1CCCN1C(=O)[C@H](CCCNC(=N)N)NC(=O)[C@@H]1CCCN1C(=O)[C@H](N)Cc1ccccc1)C(=O)N1CCC[C@H]1C(=O)N[C@@H](CCC(=O)O)C(=O)N[C@@H](CCC(=O)O)C(=O)N[C@@H](Cc1ccc(O)cc1)C(=O)N[C@@H](CC(C)C)C(=O)O [Hirulog-1, reference compound]", "0.395 µM·h"),
]
